molecular target: rat hepatic microsomal HMG CoA reductase (Rattus norvegicus); construct: rat hepatic microsomal HMG CoA reductase activity in vitro; from tissue; host or cells: rat liver microsomes; test: inhibition of rat hepatic microsomal HMG CoA reductase activity in vitro; type: biochemical; settings: 2.22 micrograms/ml
Sequence (P51639 whole entry): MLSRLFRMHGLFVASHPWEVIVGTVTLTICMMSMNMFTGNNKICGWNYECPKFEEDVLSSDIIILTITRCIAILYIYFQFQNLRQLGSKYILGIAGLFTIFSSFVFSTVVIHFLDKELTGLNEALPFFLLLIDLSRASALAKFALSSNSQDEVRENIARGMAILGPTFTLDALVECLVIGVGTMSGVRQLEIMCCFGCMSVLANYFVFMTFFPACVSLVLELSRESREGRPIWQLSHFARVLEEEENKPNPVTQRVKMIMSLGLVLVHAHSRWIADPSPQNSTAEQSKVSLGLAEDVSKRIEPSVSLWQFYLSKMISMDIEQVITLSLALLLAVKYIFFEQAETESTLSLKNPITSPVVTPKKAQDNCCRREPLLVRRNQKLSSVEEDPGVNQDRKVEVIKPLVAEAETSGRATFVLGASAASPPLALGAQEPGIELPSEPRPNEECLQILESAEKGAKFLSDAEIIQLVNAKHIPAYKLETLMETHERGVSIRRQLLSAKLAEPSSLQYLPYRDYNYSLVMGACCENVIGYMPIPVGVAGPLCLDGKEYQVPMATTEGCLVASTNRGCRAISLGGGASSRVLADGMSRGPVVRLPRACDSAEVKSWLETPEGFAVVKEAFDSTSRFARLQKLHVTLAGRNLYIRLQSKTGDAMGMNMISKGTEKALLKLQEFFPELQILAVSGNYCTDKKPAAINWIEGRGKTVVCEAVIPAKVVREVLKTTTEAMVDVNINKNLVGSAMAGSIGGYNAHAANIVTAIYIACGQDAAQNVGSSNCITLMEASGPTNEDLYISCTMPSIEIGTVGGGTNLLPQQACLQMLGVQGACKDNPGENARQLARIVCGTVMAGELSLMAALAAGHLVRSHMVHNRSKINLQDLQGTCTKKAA
attribute_measured: inhibition at 2.22 µg/mL (%)
Answers are plain numbers, in %.

A selection of reference data follows.
- compound: "CCOC(=O)C[C@H](O)C[C@H](O)/C=C/c1c(-c2ccc(F)cc2)c2c3ccccc3cnn2c1C(C)C (relative stereo)"
  inhibition at 2.22 µg/mL, %: 85
- compound: "CC(C)c1c(/C=C/C(O)CC(O)CC(=O)O)c(-c2ccc(F)cc2)c2c3ccccc3cnn12 (stereo not drawn)"
  inhibition at 2.22 µg/mL, %: 76
- compound: "CC(C)c1c(/C=C/C(=O)CC(O)CC(=O)O)c(-c2ccc(F)cc2)c2c3ccccc3cnn12 (stereo not drawn)"
  inhibition at 2.22 µg/mL, %: 52

Please give inhibition at 2.22 µg/mL, item by item, for the list that follows.
1. CC(C)c1c(/C=C/C(O)CC(O)CC(=O)O)c(-c2ccccc2)c2c3ccccc3cnn12 (stereo not drawn)
2. CC(C)c1c(/C=C/[C@@H](O)C[C@@H](O)CC(=O)O)c(-c2ccc(F)cc2)c2c3ccccc3cnn12 (relative stereo)
3. CC(C)c1c(/C=C/[C@@H](O)C[C@H](O)CC(=O)O)c(-c2ccc(F)cc2)c2c3ccccc3cnn12 (relative stereo)

Result:
74
94
67
